SYSTEM: recombinant human IP6K2 (Homo sapiens, UniProt Q9UHH9)
Construct: made in house; host or cells: Sf9 insect cells (baculovirus, pFASTBAC1)
Sequence (Q9UHH9 whole entry): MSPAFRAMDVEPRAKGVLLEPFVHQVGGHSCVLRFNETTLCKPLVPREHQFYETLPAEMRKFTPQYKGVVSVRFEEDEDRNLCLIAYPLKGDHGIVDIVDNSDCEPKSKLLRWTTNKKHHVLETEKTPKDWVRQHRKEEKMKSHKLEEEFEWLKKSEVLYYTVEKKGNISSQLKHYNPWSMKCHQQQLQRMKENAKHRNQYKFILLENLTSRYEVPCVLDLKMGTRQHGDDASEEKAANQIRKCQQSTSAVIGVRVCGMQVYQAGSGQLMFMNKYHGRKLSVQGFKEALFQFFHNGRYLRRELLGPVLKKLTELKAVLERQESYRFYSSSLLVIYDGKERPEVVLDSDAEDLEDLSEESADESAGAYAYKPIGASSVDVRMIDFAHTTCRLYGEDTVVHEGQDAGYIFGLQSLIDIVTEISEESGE
ASSAY TEXT: ADP-Glo kinase assay, IP6K2
Type: biochemical
CONDITION CONTEXT: Table 2; duplicates, 0.017 to 100 µM, mean ± SD; IP6K2 80 nM, IP6 10 μM, ATP 10 μM; read-out: IP6K2 IC50
RECORDED ENDPOINT: IC50 (µM)
Give bare numbers, in µM.

O=c1c(O)c(-c2ccc(O)cc2)oc2cc(O)c(O)cc12 [Compound 20p]
22.6
Cc1cccc(-c2oc3cc(O)c(O)cc3c(=O)c2O)c1 [Compound 20d]
38.8
O=c1c(O)c(-c2cccc(Cl)c2)oc2cc(O)c(O)cc12 [Compound 20l]
73.2

# input for lookup
According to the records, this molecule O=c1c(O)c(-c2cccc(O)c2)oc2cc(O)c(O)cc12 [Compound 20q] displays IC50 of 2.96
